test: Mouse IV pharmacokinetics; assay type: in vivo, Balb/c mice; settings: male, Balb/c, plasma; Mouse IV-PK (5 mg/kg)
Property label: half-life (h)

(I) C#CC(=O)N1[C@@H](CCCC)Cc2cc(OC)ccc2[C@@H]1c1ccc(F)cc1
(II) C#CC(=O)N1[C@@H](CCCC)Cc2cc(OC)ccc2[C@@H]1c1ccc(NC23CC4CC(CC(C4)C2)C3)cc1
Exam item: Input pair: I , II . Output: entry with lower half-life. In your reply, give the label of the chosen option.
Marked response: I

====

test: Mouse IV pharmacokinetics; format: in vivo, Balb/c mice; details: male, Balb/c, plasma; Mouse IV-PK (5 mg/kg)
Property label: Vd (L/kg)

Exam item: Quote Vd reported for `C#CC(=O)N1[C@@H](CCCC)Cc2cc(OC)ccc2[C@@H]1c1ccc(F)cc1` please.
Marked response: 19.5

Exam item: Quote Vd reported for `C#CC(=O)N1[C@@H](CCCC)Cc2cc(OC)ccc2[C@@H]1c1ccc(NC23CC4CC(CC(C4)C2)C3)cc1` please.
Marked response: 14.7

Where do these numbers come from? They come from patent US20220002280A1.
